- System: MS2 coat protein
- Assay Info: apparent KD of MS2 coat protein; higher = weaker reporter binding
- Setup Conditions: Eterna round: R107; input ligand: theophylline 2 mM
Endpoint Label: apparent KD of MS2 coat protein (nM)

GGAUAGGACAGAAGGAGCGUGAGAUGCAAAGCAUCAUUCCUCACAUGAGGAUCACCCAUGUCACAGGUAGGUCGCUGUCCUAUCG [ArgBX 4]	110
AGUAGACACGCGGCCGCCACUUGAGGAUCACCCAGGUGGUGUGUACUUGAAAACAAGUGCACAUCAAGGACCGGGCGUGUCUACA [Omei Tryp B SS D v2]	13.9
GCCUAGCAGCGAAGGAGCGAGGUAAAUAAAUAAAUAAAUAACAAGAGGAUCACCCUUGUUCCUCAGGUAGGUCGCGCUGCUAGGC [SSAB Alternative Aptamer #1 NP+V+V2]	18.9
UUUAAAAUCAGAAGGAGCGUGAUAAACAUGAGGAUCACCCAUGUCGAAAAUUUAAUAUAAUCACAGGUAGGUCGCUGUAAUAUUU [Same State - Ariginine B]	16.5
GCAUCCUAGUCGGCCGCCACUGCAUGUUGGCAGUGCUGCAACAUACAUGAGGAUCACCCAUGUUGCAGGACCGGGACUAGGAUGC [(Trp1)-(MT2)''-(T1)'-(MT2)'-(Ms2)-(Trp2)_Design1]	25.2
GGGUGGUAGGCGGCCGCCACUGAUUUUCAUUCCUGGAUGACAUGAGGAUCACCCAUGUUUACGGGCAGGACCGGGCCUGCUGUGG [aaaW]	66.6
